System: β3 over β1- and β2-adrenoceptors
Assay: Overall selectivity A×B from radioligand binding (β1, β2, β3) and functional β3 assay
Design: species or system human
Details: A=Ki(β1)/Ki(β3); B=Ki(β2)/EC50(β3); overall = A multiplied by B
outcomeMeasure: selectivity [A x B]

Worked cases, answers included:
| molecule | selectivity [A x B] |
| --- | --- |
| Cc1cc(C)nc(N2CCC(NCC(O)COc3ccc(O)cc3)CC2)n1 (stereo not shown) [Example 8] | 0 (A×B<10) |
| Cc1nc(N2CCC(NCC(O)COc3cccc(CO)c3)CC2)c2ccsc2n1 (stereo not shown) [Example 38] | 0 (A×B<10) |
| OCc1cc(OCC(O)CNC2CCN(C3=NCNc4scc(-c5ccccc5)c43)CC2)ccc1O (stereo not shown) [Example 14] | +++ (A×B>1000) |
| Cc1cc(C)nc(N2CCC(NCC(O)COc3ccc(O)c(CO)c3)CC2)n1 (stereo not shown) [Example 24] | +++ (A×B>1000) |
| CN(CC(O)COc1cccc(CO)c1)C1CCN(c2ncnc3scc(-c4ccccc4)c23)CC1 (stereo not shown) [Example 41] | + (A×B=10-100) |

The molecule CCOC(=O)c1cc(OCC(O)CNC2CCN(c3ncnc4scc(C)c34)CC2)ccc1O (stereo not shown) [Example 17] , when measured on β3 over β1- and β2-adrenoceptors, yielded selectivity [A x B] of 0 (A×B<10)

For the molecule CCOC(=O)c1cc(OCC(O)CNC2CCN(c3ncnc4sc(-c5ccccc5)c(C)c34)CC2)ccc1O (stereo not shown) [Example 20] , the measured selectivity [A x B] on β3 over β1- and β2-adrenoceptors was 0 (A×B<10)

Tested on β3 over β1- and β2-adrenoceptors, the item Cc1c(-c2ccccc2)sc2ncnc(N3CCC(NCC(O)COc4cccc(CO)c4)CC3)c12 (stereo not shown) [Example 39] showed selectivity [A x B] equal to 0 (A×B<10)

Entry OCc1cccc(OCC(O)CNC2CCN(c3ncnc4scc(-c5ccc(F)cc5)c34)CC2)c1 (stereo not shown) [Example 40] under β3 over β1- and β2-adrenoceptors had selectivity [A x B] of + (A×B=10-100)

CCOC(=O)c1cc(OCC(O)CNC2CCN(c3ncnc4scc(-c5cccs5)c34)CC2)ccc1O (stereo not shown) [Example 25] tested on β3 over β1- and β2-adrenoceptors gave selectivity [A x B]: 0 (A×B<10)

The molecule OCc1ccc(OCC(O)CNC2CCN(c3ncnc4scc(-c5ccc(F)cc5)c34)CC2)cc1 (stereo not shown) [Example 44] on β3 over β1- and β2-adrenoceptors: selectivity [A x B] was + (A×B=10-100)

COC(=O)c1ccc(O)cc1OCC(O)CNC1CCN(c2ncnc3scc(-c4ccccc4)c23)CC1 (stereo not shown) [Example 34] on β3 over β1- and β2-adrenoceptors gives selectivity [A x B] = 0 (A×B<10)
